- Assayed target: Prostaglandin G/H synthase 1 (Homo sapiens)
- Sequence (P23219 whole entry): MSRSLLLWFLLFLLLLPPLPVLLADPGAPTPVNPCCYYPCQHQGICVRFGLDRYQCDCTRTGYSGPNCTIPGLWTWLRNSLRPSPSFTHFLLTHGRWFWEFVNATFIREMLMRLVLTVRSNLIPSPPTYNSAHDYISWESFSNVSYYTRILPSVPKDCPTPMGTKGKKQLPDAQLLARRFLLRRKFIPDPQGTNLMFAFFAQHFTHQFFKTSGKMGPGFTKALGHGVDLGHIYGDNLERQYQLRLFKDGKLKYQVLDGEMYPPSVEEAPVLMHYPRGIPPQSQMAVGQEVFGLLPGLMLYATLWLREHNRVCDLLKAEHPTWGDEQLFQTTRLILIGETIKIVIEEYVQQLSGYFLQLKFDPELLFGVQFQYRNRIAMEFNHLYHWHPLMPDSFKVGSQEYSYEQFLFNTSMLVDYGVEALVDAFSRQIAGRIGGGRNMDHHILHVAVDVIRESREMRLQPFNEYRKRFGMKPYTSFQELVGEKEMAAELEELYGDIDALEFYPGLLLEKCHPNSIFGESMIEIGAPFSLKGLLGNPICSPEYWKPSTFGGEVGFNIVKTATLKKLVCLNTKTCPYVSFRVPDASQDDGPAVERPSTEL
- Experiment: Inhibition of human COX1 expressed in african green monkey COS cells assessed as inhibition of arachidonic acid-stimulated PGE2 production by enzyme immunoassay
pIC50: −log10 of the molar value.
// reported pIC50 for each item listed
Reported endpoint: pIC50

INSERT INTO results (entry_smiles, comparison_sign, obs_value) VALUES
  ('CS(=O)(=O)c1ccc(-c2cnc(Cc3ccccc3)nc2-c2ccc(F)cc2)cc1', '<', 4.47),
  ('CS(=O)(=O)c1ccc(-c2cnc(Cc3ccccn3)nc2-c2ccc(F)cc2)cc1', '<', 4.00),
  ('CS(=O)(=O)c1ccc(-c2cnc(NCc3ccccc3)nc2-c2ccc(F)cc2)cc1', '<', 4.00),
  ('Cn1cccc1Cc1ncc(-c2ccc(S(C)(=O)=O)cc2)c(-c2ccc(F)cc2)n1', '=', 5.18),
  ('CC(C)c1ncc(-c2ccc(S(C)(=O)=O)cc2)c(-c2ccc(F)cc2)n1', '=', 5.00),
  ('CS(=O)(=O)c1ccc(-c2cnc(Oc3ccccc3)nc2-c2ccc(F)cc2)cc1', '<', 4.00),
  ('CS(=O)(=O)c1ccc(-c2cnc(CC3CCCCC3)nc2-c2ccc(F)cc2)cc1', '=', 5.53),
  ('CS(=O)(=O)c1ccc(-c2cnc(Nc3ccccc3)nc2-c2ccc(F)cc2)cc1', '<', 4.00),
  ('CS(=O)(=O)c1ccc(-c2cnc(CCc3ccccc3)nc2-c2ccc(F)cc2)cc1', '=', 4.53),
  ('CN(c1ccccc1)c1ncc(-c2ccc(S(C)(=O)=O)cc2)c(-c2ccc(F)cc2)n1', '=', 5.36);

###

Overview of reported IC50 across a group of molecules:
- Assayed target: Prostaglandin G/H synthase 2 (Homo sapiens)
- Sequence (P35354 whole entry): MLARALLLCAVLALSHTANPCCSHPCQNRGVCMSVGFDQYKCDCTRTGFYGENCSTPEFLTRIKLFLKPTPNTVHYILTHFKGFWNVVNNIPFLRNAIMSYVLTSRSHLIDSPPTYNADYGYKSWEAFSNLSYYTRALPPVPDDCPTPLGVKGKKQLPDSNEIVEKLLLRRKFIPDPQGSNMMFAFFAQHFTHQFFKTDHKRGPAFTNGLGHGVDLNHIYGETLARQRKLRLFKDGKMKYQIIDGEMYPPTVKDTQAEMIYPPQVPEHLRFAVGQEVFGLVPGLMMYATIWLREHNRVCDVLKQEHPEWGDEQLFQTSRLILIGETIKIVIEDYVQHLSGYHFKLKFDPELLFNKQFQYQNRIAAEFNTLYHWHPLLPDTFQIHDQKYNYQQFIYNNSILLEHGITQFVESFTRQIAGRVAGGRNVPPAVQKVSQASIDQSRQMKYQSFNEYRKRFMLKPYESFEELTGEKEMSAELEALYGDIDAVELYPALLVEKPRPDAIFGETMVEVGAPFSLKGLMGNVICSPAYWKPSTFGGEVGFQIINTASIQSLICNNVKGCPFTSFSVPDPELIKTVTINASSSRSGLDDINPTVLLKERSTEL
- Experiment: Inhibition of human COX2 expressed in african green monkey COS cells assessed as inhibition of arachidonic acid-stimulated PGE2 production by enzyme immunoassay
Reported endpoint: IC50 (nM)

INSERT INTO results (molecule, assayed_target, comparison_sign, obs_value) VALUES
  ('CS(=O)(=O)c1ccc(-c2cnc(C(O)c3ccccc3)nc2-c2ccc(F)cc2)cc1 (stereo not drawn)', 'Prostaglandin G/H synthase 2 (Homo sapiens)', '=', 57),
  ('CS(=O)(=O)c1ccc(-c2cnc(NCc3ccccc3)nc2-c2ccc(F)cc2)cc1', 'Prostaglandin G/H synthase 2 (Homo sapiens)', '=', 686),
  ('CS(=O)(=O)c1ccc(-c2cnc(Sc3ccccc3)nc2-c2ccc(F)cc2)cc1', 'Prostaglandin G/H synthase 2 (Homo sapiens)', '>', 7200);

###

Below, each entry is listed with its recorded Ratio IC50.
- Species: Homo sapiens
- Experiment: Selectivity ratio of IC50 for human COX1 to IC50 for human COX2
Reported endpoint: Ratio IC50

INSERT INTO assay_data (entry_smiles, reported_endpoint, obs_value) VALUES
  ('CS(=O)(=O)c1ccc(-c2cnc(Cc3ccccn3)nc2-c2ccc(F)cc2)cc1', 'Ratio IC50', '> 16'),
  ('CS(=O)(=O)c1ccc(-c2cnc(NCc3ccccc3)nc2-c2ccc(F)cc2)cc1', 'Ratio IC50', '> 145'),
  ('CS(=O)(=O)c1ccc(-c2cnc(Cc3ccccc3)nc2-c2ccc(F)cc2)cc1', 'Ratio IC50', '> 326'),
  ('CS(=O)(=O)c1ccc(-c2cnc(Nc3ccccc3)nc2-c2ccc(F)cc2)cc1', 'Ratio IC50', '> 1780'),
  ('CS(=O)(=O)c1ccc(-c2cnc(Cc3ccc(F)cc3F)nc2-c2ccc(F)cc2)cc1', 'Ratio IC50', '> 457'),
  ('CS(=O)(=O)c1ccc(-c2cnc(Cc3ccc(F)cc3)nc2-c2ccc(F)cc2)cc1', 'Ratio IC50', '> 361');
